biological target: T1, cynomolgus soluble urokinase plasminogen activator receptor (suPAR) (cynomolgus, UniProt Q9GK78 23-303, limits assumed); experiment: BLI (Octet) off-rate screen of scFv clones
T1 construct: Column head says only 'cynomologus'; also called cynomolgus suPAR; cynomolgus uPAR
T1 sequence (Q9GK78 23-303 limits assumed): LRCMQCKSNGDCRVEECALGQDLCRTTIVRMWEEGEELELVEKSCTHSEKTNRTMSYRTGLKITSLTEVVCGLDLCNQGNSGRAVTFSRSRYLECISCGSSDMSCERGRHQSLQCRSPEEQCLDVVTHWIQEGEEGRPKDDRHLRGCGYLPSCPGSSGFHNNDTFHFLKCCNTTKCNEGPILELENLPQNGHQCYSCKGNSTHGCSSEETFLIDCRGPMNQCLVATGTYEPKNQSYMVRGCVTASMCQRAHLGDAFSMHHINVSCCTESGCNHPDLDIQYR
Each entry below carries its recorded koff.
MEASUREMENT_KIND: koff (s⁻¹)

| BINDER | VALUE_UNITS | VALUE_MEASURED |
| --- | --- | --- |
| suPAR_DB02_G12 (scFv, V domains shown, scFv clone from phage display) VH: QVQLVQSGAEVKKPGASVKVSCKASGFNIKDYYIHWVRQAPGQGLEWMGWIDPENGSTIYDQKFQGRVTMTRDTSTSTVYMELSSLRSEDTAVYYCARGYDVDWFVYWGQGTLVTVSS VL: DIQMTQSPSSLSASVGDRVTITCSASSSVSYMYWYQQKPGKAPKLLIYRTSSLQSGVPSRFSGSGSGTDFTLTISSLQPEDFATYYCQQYHSYPPTFGGGTKVEIK | s⁻¹ | 0.000584 |
| suPAR_DB02_G10 (scFv, V domains shown, scFv clone from phage display) VH: QVQLVQSGAEVKKPGASVKVSCKASGYTFTNYYMHWVRQAPGQGLEWMGWIDPENGSTIYDQKFQGRVTMTRDTSTSTVYMELSSLRSEDTAVYYCARGYDVDWFVYWGQGTLVTVSS VL: DIQMTQSPSSLSASVGDRVTITCRARQSVSYMYWYQQKPGKAPKLLIYRTSNLETGVPSRFSGSGSGTDFTLTISSLQPEDFATYYCQQYHSYPPTFGGGTKVEIK | s⁻¹ | 0.00043 |
| suPAR_DB02_D05 (scFv, V domains shown, scFv clone from phage display) VH: QVQLVQSGAEVKKPGASVKVSCKASGYTFTSYYMHWVRQAPGQGLEWMGWIDHENGNTIYDQKFQGRVTMTRDTSTSTVYMELSSLRSEDTAVYYCARGYDVDWFVYWGQGTLVTVSS VL: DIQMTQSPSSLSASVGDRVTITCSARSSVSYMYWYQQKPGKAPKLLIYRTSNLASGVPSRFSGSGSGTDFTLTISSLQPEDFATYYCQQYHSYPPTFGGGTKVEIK | s⁻¹ | 0.000305 |
| suPAR_DB02_H02 (scFv, V domains shown, scFv clone from phage display) VH: QVQLVQSGAEVKKPGASVKVSCKASGYTFTGYYLHWVRQAPGQGLEWMGWIDPENGSTIYDQKFQGRVTMTRDTSTSTVYMELSSLRSEDTAVYYCARGYDVDWFVYWGQGTLVTVSS VL: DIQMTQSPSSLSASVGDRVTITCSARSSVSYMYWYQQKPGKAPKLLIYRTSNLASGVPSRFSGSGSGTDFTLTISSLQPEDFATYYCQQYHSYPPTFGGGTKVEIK | s⁻¹ | 0.000498 |

Reference source for all entries: patent US20250215104A1
